Molecular target: T1, full length recombinant human 2N4R tau (human, UniProt P10636 1-758)
T1 construct: bought from rPeptide; pHrodo Red maleimide-labelled where it stands in uptake assays; also called tau1-441; full length tau
T1 sequence (P10636 other isoform, or with tags, fused parts or gaps limits assumed): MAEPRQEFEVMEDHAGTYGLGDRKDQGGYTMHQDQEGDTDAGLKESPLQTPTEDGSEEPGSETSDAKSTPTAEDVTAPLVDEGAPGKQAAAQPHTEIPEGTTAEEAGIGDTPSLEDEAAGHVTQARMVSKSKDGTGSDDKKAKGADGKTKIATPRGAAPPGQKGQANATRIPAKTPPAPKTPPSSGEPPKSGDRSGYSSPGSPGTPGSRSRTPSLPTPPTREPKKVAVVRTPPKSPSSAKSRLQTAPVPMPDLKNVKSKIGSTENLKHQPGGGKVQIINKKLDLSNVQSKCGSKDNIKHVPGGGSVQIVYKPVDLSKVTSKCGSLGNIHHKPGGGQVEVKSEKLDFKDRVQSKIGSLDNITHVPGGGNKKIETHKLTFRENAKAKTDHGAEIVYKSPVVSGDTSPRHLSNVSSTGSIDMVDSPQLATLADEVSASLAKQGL
Test: SPR SCK, IgG on Protein A, tau in flow
Property: kon; scope: individual binders
Quick note: give the figure in M⁻¹ s⁻¹, leave out the unit.

• #44_VH4VK4 humanised hIgG1 (antibody, V domains shown, also called VH4Vκ4; pVH/pVL) VH: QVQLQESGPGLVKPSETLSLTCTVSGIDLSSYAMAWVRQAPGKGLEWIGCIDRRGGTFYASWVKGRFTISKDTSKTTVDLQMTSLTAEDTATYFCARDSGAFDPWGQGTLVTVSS VL: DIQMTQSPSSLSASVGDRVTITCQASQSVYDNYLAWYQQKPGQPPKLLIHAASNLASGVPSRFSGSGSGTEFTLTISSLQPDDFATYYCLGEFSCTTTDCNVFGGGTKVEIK = 3.61e+06

API: the following record is the query input.
Enquiry: Find the recorded kon belonging to #44 VH5VK4 humanised hIgG1 (antibody, V domains shown, also called VH5Vκ4) VH: QVQLQESGPGLVKPSETLSLTCTVSGIDLSSYAMAWVRQAPGKGLEWIGCIDRRGGTFYASWVKGRFTISRDNSKNTLDLQMTSLTAEDTATYYCARDSGAFDPWGQGTLVTVSS VL: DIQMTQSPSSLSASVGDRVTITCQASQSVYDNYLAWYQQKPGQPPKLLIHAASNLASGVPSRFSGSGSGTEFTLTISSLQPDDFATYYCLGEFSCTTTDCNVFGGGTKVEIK and report it.
Return: 7.11e+06
